Tgt: human α-thrombin (human, UniProt P00734 328-622)
Procedure summary: amidolytic assay, Tos-Gly-Pro-Arg-pNA hydrolysis by human α-thrombin, 25° C.
Measured attribute: log10 of Ki (log10 of the value in nM)
Note the log scale: values are log10 of Ki expressed in nM.

Observe how each entry below is paired with its result.
Req: # get_value(readout='log10 of Ki', item= FDPRPQDHNDGDFEEIPEEYLQ (Synthetic) [FD22-D] )
Resp: 1.76

Req: # get_value(readout='log10 of Ki', item= FNPRPQIHNDGDFEEIPEEYLQ [FN22-I] )
Resp: 2.56

Req: # get_value(readout='log10 of Ki', item= GSAVPRPQIHNDGDFEEIPEEYLQ [GS-AV22-I] )
Resp: 1.61

Req: # get_value(readout='log10 of Ki', item= LDPRPQSHNDGDFEEIPEEYLQ (Synthetic) [LD22] )
Resp: 2.41

Req: # get_value(readout='log10 of Ki', item= WDPRPQRHNDGDFEEIPEEYLQ (Synthetic) [WD22-R] )
Resp: 1.23

For the 3 binders below, give their log10 of Ki values.
1. FQPRPQMHNDGDFEEIPEEYLQ [FQ22-M]
2. IQPRPQIHNDGDFEEIPEEYLQ [IQ22-I]
3. FDPRPQRHNDGDFEEIPEEYLQ (Synthetic) [FD22-R]

Resp:
[1.81, 1.69, 1.65]
